Reference source for all entries: PubChem BioAssay AID1159580

- METHOD_NOTES: chemical genetic growth profiling, strain panel (AID 1159580);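 also: tested at 20 µM; growth read once vehicle control cultures reached saturation at 30 °C; lower values mean less growth of the strain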
- RECORDED_CONDITIONS: S. cerevisiae deletion strains, growth OD, locus YHR030C, strain SLT2, hits give low values
Screen size: about 5,500 compounds; about 2,000 (36%) were called active. About 18% were inconclusive and are not listed. This is one part of the list.
normalized growth under 0.5 gets Fulfilled, anything at or over 0.5 gets Not fulfilled.

As a guide, the following entries are already answered.
                                   molecule  assigned_category
0  CCC(C)Cn1c(Sc2ncc([N+](=O)[O-])s2)n[nH]c1=O (stereo not given)      Not fulfilled
1         COc1ccc2oc(-c3ccccc3OC)cc(=O)c2c1      Not fulfilled
2           N#CCC(=O)c1cccc(CSc2ccccc2Cl)c1          Fulfilled
3  CC(=O)C1COc2ccc(C)cc2C1=O (stereo not given)          Fulfilled
4  O=C1c2ccccc2O[C@@H](c2ccccc2)[C@@H]1NCc1ccccc1      Not fulfilled
5  O=C(NNC(=O)c1ccccc1[N+](=O)[O-])c1ccc(Cl)cc1      Not fulfilled
6  CCCCCn1c(Sc2ncc([N+](=O)[O-])s2)n[nH]c1=O          Fulfilled
7  [N-]=[N+]=CC(=O)OCC(N)C(=O)O (stereo not given)      Not fulfilled
8  C=CCn1c(Sc2ncc([N+](=O)[O-])s2)n[nH]c1=O      Not fulfilled
9  CC(=O)Oc1cc(-c2coc3cc(OC(C)=O)c(OC(C)=O)c(OC(C)=O)c3c2=O)cc(OC(C)=O)c1OC(C)=O      Not fulfilled

Please indicate whether the reported normalized growth of `O=C(NNC(=O)c1csc(-c2cccs2)n1)c1ccc(C(F)(F)F)cc1` is strictly below 0.5. Fulfilled

Please indicate whether the reported normalized growth of `COc1ccc2c(=O)cc(-c3ccccc3OC)oc2c1` is strictly below 0.5. Not fulfilled

Please indicate whether the reported normalized growth of `CCCc1cnc(N2CCN(CC(=O)N(c3ccccc3)C3CCCCC3)CC2)nc1` is strictly below 0.5. Not fulfilled

Please indicate whether the reported normalized growth of COC(=O)C1=C(C)NC(C)=C(C(=O)OCC(C)C)C1c1ccccc1[N+](=O)[O-] (stereo not given) is strictly below 0.5. Fulfilled
